Reported self-cleavage values for the following variants.
B1: LINE1-mini (parent)
chain: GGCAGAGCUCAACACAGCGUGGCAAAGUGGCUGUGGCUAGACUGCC

# Variants of: B1
# method description: self-cleavage, relative activity (ratio to wild type); higher = more cleavage; in vitro, sequencing; the parent is a self-cleaving ribozyme
// keep it numeric: no unit symbol after the value

Worked examples, 8 variants total:
[[record]]
mutation_id = "G17C A24C"
quantity_measured = "self-cleavage"
readout_value = 0.19

[[record]]
mutation_id = "A26G"
quantity_measured = "self-cleavage"
readout_value = 0.87

[[record]]
mutation_id = "C15G G36C"
quantity_measured = "self-cleavage"
readout_value = 0.03

[[record]]
mutation_id = "G22C G33C"
quantity_measured = "self-cleavage"
readout_value = 0.06

[[record]]
mutation_id = "C10A A14U"
quantity_measured = "self-cleavage"
readout_value = 0.05

[[record]]
mutation_id = "U9G G30A"
quantity_measured = "self-cleavage"
readout_value = 0.09

[[record]]
mutation_id = "C3A U32G"
quantity_measured = "self-cleavage"
readout_value = 0.15

[[record]]
mutation_id = "C10U G22C"
quantity_measured = "self-cleavage"
readout_value = 0.18


Form: variant = C3U C13A ; self-cleavage = 0.15

C8G U9C has a reported self-cleavage of 0.02

Data point: U28G A39G ; self-cleavage = 0.07

self-cleavage in this record for G17A A25C : 0.07

self-cleavage recorded for this variant, G29U A41G , is 0.41

Just so you know, measured self-cleavage for G7A A24U came out at 0.16

So, C8G U38C ? Its self-cleavage was 0.05

In plain terms, C31A G40A has a documented self-cleavage of 0.04

Entry G22C U28G , self-cleavage reported as 0.43

self-cleavage measured on C3U C37G = 0.05
